system tested: T1, recombinant human IL-6 (human, UniProt P05231 30-212, limits assumed)
T1 construct: also called rhIL6; human recombinant IL-6
procedure text: competition ELISA, rhIL-6 in solution against captured IL-6
pIC50: −log10 of the molar value.
Everything with pIC50 lower than 9 is class 0; everything else, including exactly 9, is class 1.

binder | classification
mAb 241 (antibody, V domains shown) VH: QVTLKESGPTLVKPTQTLTLTCSFSGFSLSTSGVGVGWVRQPPGKALEWLAFIFWDDDKYYSPSLESRLTITKDTSKNQVVLTMTNMDPVDTATYYCARSYDDYLYYALDYWGQGTLVT VL: DVVMTQSPSSVSASVGDRVTITCRASQDIDNFLAWYQQKPGKAPNLLIYKVSSLRSGVPSRFSGSRSGTDFTLTITSLQPEDFATYFCQQTRRFPLTFGPGTKLE | class 0
mAb 192 (antibody, V domains shown) VH: QVTLKESGPALVKPTQTLTLTCTFSGFSLTTSGMCVSWIRQPPGKALEWLALIYWDDDKRYNPSLRSRLTITKDTSKNQVVLTMTNMDPVDTATYYCARSYDDYLYYALDYWGQGTLVT VL: DIVMTQSPSSLSASVGDRVTITCRASRNINTYLNWYQQKPGKAPKLLVHSASTLQSGAPSRFSGSGYGTEFTLIISSLQPDDFATYYCQQGYNTLTFGPGTKLE | class 0
mAb 1154 (antibody, V domains shown) VH: QVTLKESGPTLVKPTQTLTLTCSFSGFSLSTSGVGVGWVRQPPGKALEWLAFIFWDDDKYYSPSLESRLTITKDTSKNQVVLTMTNMDPVDTATYYCARSADDYLYYSFDTWGQGTLVT VL: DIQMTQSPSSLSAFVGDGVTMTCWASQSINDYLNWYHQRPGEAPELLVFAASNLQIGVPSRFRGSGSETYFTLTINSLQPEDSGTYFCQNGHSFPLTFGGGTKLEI | class 1
mAb 186 (antibody, V domains shown) VH: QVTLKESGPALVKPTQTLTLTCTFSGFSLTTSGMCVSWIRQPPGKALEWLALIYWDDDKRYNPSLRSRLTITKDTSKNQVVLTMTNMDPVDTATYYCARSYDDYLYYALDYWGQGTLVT VL: DVVMTQSPSSLSASVGGRVTITCRASQTIGDYLNWYQQKPGKAPRLLIYSASIVQSGVPSRFSASGSGTDFTLTISSLQPEDFATYSCQQSYSFPLTFGGGTKLEIK | class 0
